Attribute: pKd
Molecular target: T1, EsCas13d, nuclease-dead (Eubacterium siraeum, UniProt B0MS50, R295A;H300A;R849A;H854A)
T1 sequence: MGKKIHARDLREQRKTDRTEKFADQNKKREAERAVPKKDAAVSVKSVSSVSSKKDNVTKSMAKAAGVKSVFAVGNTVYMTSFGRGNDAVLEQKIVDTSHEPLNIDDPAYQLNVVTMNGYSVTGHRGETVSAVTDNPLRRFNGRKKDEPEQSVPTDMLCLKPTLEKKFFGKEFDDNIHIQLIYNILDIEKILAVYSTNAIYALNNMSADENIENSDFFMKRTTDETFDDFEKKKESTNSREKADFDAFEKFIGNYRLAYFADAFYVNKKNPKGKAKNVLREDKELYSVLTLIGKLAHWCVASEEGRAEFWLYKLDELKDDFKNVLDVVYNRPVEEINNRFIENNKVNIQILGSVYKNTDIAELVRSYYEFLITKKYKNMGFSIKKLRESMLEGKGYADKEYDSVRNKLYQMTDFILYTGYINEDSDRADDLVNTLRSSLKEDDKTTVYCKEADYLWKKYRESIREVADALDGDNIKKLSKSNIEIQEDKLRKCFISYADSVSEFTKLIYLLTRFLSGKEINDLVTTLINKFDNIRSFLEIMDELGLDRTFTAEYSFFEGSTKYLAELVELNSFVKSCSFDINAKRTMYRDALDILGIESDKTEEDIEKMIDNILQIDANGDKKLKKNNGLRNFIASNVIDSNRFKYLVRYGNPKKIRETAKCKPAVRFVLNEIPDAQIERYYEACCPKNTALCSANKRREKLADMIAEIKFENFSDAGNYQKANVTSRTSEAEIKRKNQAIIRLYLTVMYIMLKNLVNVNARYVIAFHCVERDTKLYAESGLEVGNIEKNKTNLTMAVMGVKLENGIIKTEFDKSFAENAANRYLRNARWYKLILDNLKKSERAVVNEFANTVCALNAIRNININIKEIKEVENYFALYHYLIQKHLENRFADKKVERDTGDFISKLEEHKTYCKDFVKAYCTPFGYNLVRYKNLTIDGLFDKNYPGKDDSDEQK
Test: crRNA (strand 1, pre-loaded); Mg2+; 40 mM Tris-HCl pH 7.5, 150 mM NaCl, 6 mM MgCl2, 1 mM DTT, 0.1% Tween-20, 0.2 mg/ml BSA; 25 C; 10 min per concentration, then washed
Conditions: tags: His6-TwinStrep-SUMO cleaved; N-terminal SNAP kept (SNAP-Surface 488); label: 3' end held by stalled T7 RNA polymerase
pKd: −log10 of the molar value.

binder	pKd
target 2 MT 5'PFS GCC 3'PFS UUG (mixed) RNA 1: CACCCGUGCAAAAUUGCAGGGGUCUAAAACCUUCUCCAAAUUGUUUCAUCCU RNA 2: GGGAAUGGAUCCACAUCUACGAAUUCGCCAGGAUGAAACAAUUUGGAGAAGUUGAGAUCGGAAGAGCACACGU	7.82
target 1 insG 3' of 16,insA 3' of 11 (mixed) RNA 1: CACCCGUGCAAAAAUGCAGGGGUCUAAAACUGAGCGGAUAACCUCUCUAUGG RNA 2: GGGAAUGGAUCCACAUCUACGAAUUCGUACCAUAGAGGAGGUAUAUCCGCUCACCGAGAUCGGAAGAGCACACGU	7.71
target 2 MT 5'PFS GAG 3'PFS UUU (mixed) RNA 1: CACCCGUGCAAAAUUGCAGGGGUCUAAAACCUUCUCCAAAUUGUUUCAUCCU RNA 2: GGGAAUGGAUCCACAUCUACGAAUUCGAGAGGAUGAAACAAUUUGGAGAAGUUUAGAUCGGAAGAGCACACGU	7.74
target 1 U8A,G12A (mixed) RNA 1: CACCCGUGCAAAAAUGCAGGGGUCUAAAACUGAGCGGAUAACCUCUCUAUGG RNA 2: GGGAAUGGAUCCACAUCUACGAAUUCGUACCAUAGAGAGAUUAACCGCUCACCGAGAUCGGAAGAGCACACGU	8.07
target 2 MT 5'PFS UAG 3'PFS CCC (mixed) RNA 1: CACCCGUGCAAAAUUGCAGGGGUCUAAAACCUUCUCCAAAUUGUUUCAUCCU RNA 2: GGGAAUGGAUCCACAUCUACGAAUUCUAGAGGAUGAAACAAUUUGGAGAAGCCCAGAUCGGAAGAGCACACGU	7.62
target 2 MT 5'PFS CGA 3'PFS AGC (mixed) RNA 1: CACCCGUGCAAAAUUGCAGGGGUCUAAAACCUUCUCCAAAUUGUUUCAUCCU RNA 2: GGGAAUGGAUCCACAUCUACGAAUUCCGAAGGAUGAAACAAUUUGGAGAAGAGCAGAUCGGAAGAGCACACGU	8.11
target 2 MT 5'PFS GAA 3'PFS CCA (mixed) RNA 1: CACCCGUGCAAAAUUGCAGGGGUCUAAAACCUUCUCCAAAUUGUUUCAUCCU RNA 2: GGGAAUGGAUCCACAUCUACGAAUUCGAAAGGAUGAAACAAUUUGGAGAAGCCAAGAUCGGAAGAGCACACGU	7.60
target 1 MT 5'PFS GUA 3'PFS AGU (mixed) RNA 1: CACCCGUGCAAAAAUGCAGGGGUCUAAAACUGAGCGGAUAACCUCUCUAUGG RNA 2: GGGAAUGGAUCCACAUCUACGAAUUCGUACCAUAGAGAGGUUAUCCGCUCAAGUAGAUCGGAAGAGCACACGU	8.00
